Target: EcoLRS (leucyl-tRNA synthetase from Escherichia coli) (Escherichia coli)
Construct: made in house; host or cells: Escherichia coli M15
Sequence (P07813 whole entry): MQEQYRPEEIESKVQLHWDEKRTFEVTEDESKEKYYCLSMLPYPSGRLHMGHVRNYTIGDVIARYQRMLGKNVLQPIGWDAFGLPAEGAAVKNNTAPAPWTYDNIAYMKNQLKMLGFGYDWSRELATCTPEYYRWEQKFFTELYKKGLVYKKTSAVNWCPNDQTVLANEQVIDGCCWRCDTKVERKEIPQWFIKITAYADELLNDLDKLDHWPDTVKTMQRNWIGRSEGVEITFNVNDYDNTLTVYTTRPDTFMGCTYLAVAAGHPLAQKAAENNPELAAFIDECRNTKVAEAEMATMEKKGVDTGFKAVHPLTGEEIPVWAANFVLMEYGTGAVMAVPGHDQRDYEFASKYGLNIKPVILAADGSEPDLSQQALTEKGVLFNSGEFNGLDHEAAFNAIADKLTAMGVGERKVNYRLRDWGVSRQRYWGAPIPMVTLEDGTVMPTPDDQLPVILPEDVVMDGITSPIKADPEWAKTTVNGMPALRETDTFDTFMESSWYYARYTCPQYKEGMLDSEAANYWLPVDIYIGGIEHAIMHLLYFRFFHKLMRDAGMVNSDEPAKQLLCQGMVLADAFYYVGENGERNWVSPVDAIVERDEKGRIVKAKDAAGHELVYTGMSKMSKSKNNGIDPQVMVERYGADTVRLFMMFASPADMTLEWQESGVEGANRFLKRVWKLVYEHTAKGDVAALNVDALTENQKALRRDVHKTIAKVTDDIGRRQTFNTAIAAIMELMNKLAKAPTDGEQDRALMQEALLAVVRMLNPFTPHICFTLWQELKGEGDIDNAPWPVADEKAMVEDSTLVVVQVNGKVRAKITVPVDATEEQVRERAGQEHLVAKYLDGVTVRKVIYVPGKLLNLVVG
Test: aaRS aminoacylation assay (ATP consumption), EcoLRS
Format: biochemical
Procedure: The compounds have been tested for antibacterial activity in vitro as aminoacyl-tRNA synthetases (aaRS) inhibitors following the following process. […] Escherichia coli M15 cells transformed with plasmid pQE-60, or pQE-70, containing the open-reading frame sequence of one targeted aaRS were induced with 1 mM IPTG (Isopropyl β-D-1-thiogalactopyranoside) for 3 h at 37° C. […] Protein concentration was determined by spectrophotometry. […]
metric name: pIC50
One number for each entry, as −log10 of the molar value.

Reference set, count: 10
Q. Answer briefly: pIC50 recorded on EcoLRS (leucyl-tRNA synthetase from Escherichia coli) (Escherichia coli) for CC(C)C[C@H](N)C(=O)NS(=O)(=O)c1cccc(-c2ncnc(N)n2)c1
A. 8.47

Q. Answer briefly: pIC50 recorded on EcoLRS (leucyl-tRNA synthetase from Escherichia coli) (Escherichia coli) for CC(C)C[C@H](N)C(=O)NS(=O)(=O)c1ccccc1Cl
A. 6.92

Q. Answer briefly: pIC50 recorded on EcoLRS (leucyl-tRNA synthetase from Escherichia coli) (Escherichia coli) for CC(C)C[C@H](N)C(=O)NS(=O)(=O)c1ccccc1-c1ccccc1
A. 6.80

Q. Answer briefly: pIC50 recorded on EcoLRS (leucyl-tRNA synthetase from Escherichia coli) (Escherichia coli) for Cc1cc(-c2cccc(S(=O)(=O)NC(=O)[C@@H](N)C3CCCCC3)c2)nc(N)n1
A. 4.42

Q. Answer briefly: pIC50 recorded on EcoLRS (leucyl-tRNA synthetase from Escherichia coli) (Escherichia coli) for Cc1cc(-c2cccc(S(=O)(=O)NC(=O)[C@@H](N)CC(C)C)c2)nc(N)n1
A. 7.85

Q. Answer briefly: pIC50 recorded on EcoLRS (leucyl-tRNA synthetase from Escherichia coli) (Escherichia coli) for CCc1cc(-c2cccc(S(=O)(=O)NC(=O)[C@@H](N)CC(C)C)c2)nc(N)n1
A. 7.96

Q. Answer briefly: pIC50 recorded on EcoLRS (leucyl-tRNA synthetase from Escherichia coli) (Escherichia coli) for CC(C)C[C@H](N)C(=O)NS(=O)(=O)c1ccccc1F
A. 6.63

Q. Answer briefly: pIC50 recorded on EcoLRS (leucyl-tRNA synthetase from Escherichia coli) (Escherichia coli) for CC(C)C[C@H](N)C(=O)NS(=O)(=O)c1cccc2ccncc12
A. 6.32

Q. Answer briefly: pIC50 recorded on EcoLRS (leucyl-tRNA synthetase from Escherichia coli) (Escherichia coli) for COc1cc(-c2cccc(S(=O)(=O)NC(=O)[C@@H](N)CC(C)C)c2)nc(N)n1
A. 7.92

Q. Answer briefly: pIC50 recorded on EcoLRS (leucyl-tRNA synthetase from Escherichia coli) (Escherichia coli) for CC(C)C[C@H](N)C(=O)NS(=O)(=O)c1cccc2c1OCCC2
A. 6.83

Quick batch: pIC50 for everything below.
1. CC(C)C[C@H](N)C(=O)NS(=O)(=O)c1cccc2cc(C(N)=O)ncc12
2. CC(C)C[C@H](N)C(=O)NS(=O)(=O)c1ccc(-c2ccccc2)cc1
3. CC(C)C[C@H](N)C(=O)NS(=O)(=O)c1cccc(-c2cc(N)nc(N)n2)c1
4. N[C@@H](CC1CC1)C(=O)NS(=O)(=O)c1cccc(-c2ccccc2)c1 (racemic)

A.
1. 7.96
2. 4.56
3. 7.70
4. 4.32
